Would you mind telling me the reported pIC50 of each entry?
- TEST_SYSTEM: recombinant eEF2K (Homo sapiens (Human), UniProt O00418)
- ASSAY_METHOD_TEXT: eEF2K Kinase-Glo luminescent kinase assay (ATP consumption, peptide substrate)
- COND: average of two to four separate experimental measurements, each the average of three replicates
Numbers only, as −log10 of the molar value.

Illustrative cases are given below, each with its answer.
MOLECULE | MEASURED_PARAMETER | NUMERIC_RESULT
Cn1cc(-c2c3c(nc4sc(C(N)=O)c(N)c24)C(C)(C)CC3)cn1 [Compound 29] | pIC50 | 6.15
CC1(C)CCc2c1nc1sc(C(N)=O)c(N)c1c2-c1nccs1 [Compound 23] | pIC50 | 5.70

Please report pIC50 for every entry that follows.
1. CC1(C)CCc2c1nc1sc(C(N)=O)c(N)c1c2-c1ccco1 [Compound 15]
2. CC1(C)CCc2c1nc1sc(C(N)=O)c(N)c1c2-c1cscn1 [Compound 30]
3. CC1(C)CCc2c1nc1sc(C(N)=O)c(N)c1c2-c1cocn1 [Compound 31]
4. CC1(C)CCc2c1nc1sc(C(N)=O)c(N)c1c2-c1ccsc1 [Compound 18]
5. CC1(C)CCc2nc3sc(C(N)=O)c(N)c3c(-c3ccco3)c2C1 [Compound 6]
6. CC1(C)CCCc2c1nc1sc(C(N)=O)c(N)c1c2-c1cncs1 [Compound 38]

Solution:
[5.60, 5.47, 5.46, 6.05, 5.92, 6.52]
